Measured values drawn from patent US20250027068 for this set.

Molecular target: pooled human IgG (human IgG1,2,3 and 4)
measured.metric: Enzyme Activity Endpoint Assay (purified): Fab′2 (ng/µL)

protein	recorded.number
PRT-501 (protein) MVTSVWTKGVTPPADFTQGEDVFHAPYVANQGWYDITKTFNGKDDLLCGAATAGNMLHWWFDQNKEYIEAYLKKHPEKQKIMFGDQELLDVRKAINTKGSQKNSELFNYFRDKAFPNLSARRLGVMPDLVLDMFINGYYLNVTKTQTTDVNRTYQEKDKRGGIFDAVFTRGDQSKLLTSRHDLKNKGLKEISDLIKQELTEGKALGLSHTYANVRINHVINLWGADFDSDGNLKAIYVTDSDSNASIGMKKYFVGVNSAGKVAISAKEIKEDNIGAQVLGLFTLSTGQDIWNQTNLEHHHHHH	0
